This collection of values is drawn from the supplement of paper PMC12455559.

procedure summary: PET hydrolysis, aromatic products released after 48 h (umol product/mg enzyme); higher = more PET depolymerization activity
condition summary: substrate: aFilm; 40 °C; pH 6.5

residue codes	PET hydrolysis
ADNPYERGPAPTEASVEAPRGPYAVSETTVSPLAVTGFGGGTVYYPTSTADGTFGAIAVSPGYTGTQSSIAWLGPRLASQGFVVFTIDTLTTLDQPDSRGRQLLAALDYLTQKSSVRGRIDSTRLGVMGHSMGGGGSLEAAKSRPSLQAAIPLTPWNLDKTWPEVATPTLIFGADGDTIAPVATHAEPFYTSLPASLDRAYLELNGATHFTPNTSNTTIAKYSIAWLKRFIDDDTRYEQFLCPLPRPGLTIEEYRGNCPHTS [TEP117]	< 3
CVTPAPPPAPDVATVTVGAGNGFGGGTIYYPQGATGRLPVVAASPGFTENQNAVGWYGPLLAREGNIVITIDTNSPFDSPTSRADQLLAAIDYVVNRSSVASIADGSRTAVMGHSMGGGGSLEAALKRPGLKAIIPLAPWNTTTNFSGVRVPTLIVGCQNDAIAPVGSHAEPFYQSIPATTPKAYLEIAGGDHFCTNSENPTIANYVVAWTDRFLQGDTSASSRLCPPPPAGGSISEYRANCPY [ESM050]	15.5
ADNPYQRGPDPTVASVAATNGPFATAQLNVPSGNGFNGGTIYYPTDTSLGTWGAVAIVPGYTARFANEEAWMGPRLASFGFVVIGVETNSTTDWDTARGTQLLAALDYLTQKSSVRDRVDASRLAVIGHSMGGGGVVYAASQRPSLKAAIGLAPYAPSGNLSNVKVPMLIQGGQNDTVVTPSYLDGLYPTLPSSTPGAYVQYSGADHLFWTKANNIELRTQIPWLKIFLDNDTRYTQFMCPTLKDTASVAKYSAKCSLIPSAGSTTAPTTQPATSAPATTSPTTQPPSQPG [TEP083]	< 3

----------
procedure summary: PET hydrolysis, aromatic products released after 48 h (umol product/mg enzyme); higher = more PET depolymerization activity
condition summary: substrate: cryPow; 40 °C; pH 7.5
Items are presented alongside their recorded PET hydrolysis.
property name: PET hydrolysis

residue codes	reported relation	readout number
AGNPYQRGPDPTLASVAASRGTFATAQVSVPPGNGFNGGTIYYPTDTTQGTWGAVAIVPGYTALFANEEAWMGPWLASFGFVVIGIETNSRNDFDTARGTQLLAALDYLTQKSPVRDRVDSARLGVIGHSMGGGGVVYATEHRPSLKAAVALAPFSPSQDMSTDHVPTMVMAGQNDTVVTPSYLDGLYATMPASAQSDFVQLAGADHVAYTHPNTTEMRLLIPWLKIFLDDDTRYTQFLCPLKDSTGVSMYRAKCPYVPPGGPTTSPTPTTTPTPPDGGACSATYRTVNSWSGGYQGEITVTAGGAAIDGWTVRWSLGGGQTVTQVWNGTLSTSGSTASVANASYNGSLQASASTTFGFLANGTPSTPALTCSSP [ESM084]	<	3
QTNPYQKGPAPTVANLEAARGSFAVSSTSISSLSATGFGGGSLHYPTAAGTYGLIAVAPPYLAQSSSIAWLGPRLASHGFVVVMIDVNSTLDFPESRSRQQLAAIDYAIAQNARRTSPIYGKVDTTRRGVTGHSMGGGASILTARNSPANIKGAFPLTPWSSDKNFSNLQVPTGYLACQDDTVAGNADHSLNFYNRMPASTPKGYYELRGETHFCPQSTTNNPVIGKYLVAWMKRFVDNDTRFSPFLSGALPNADLSSGRFSVLRTSGL [DP075]	<	3
GQAAVPVAVAGTSAFAKGPDPTEQSIQAQRGPFATAQRTVPSEAGRAFNRGTVHYPTDTSHGTYGAVVVSPGFFGPEFSVAWYGSTLASHGFVVLTLETNFLFDQPDARATQLLAGLDWLAARSPVKDRVDPNRLAVMGHSMGGGGTLIAASRNPALKAAIPLTPWNTSPDFSTVTVPTLVLGTDNDTVAPVARHADPMYASLRDKPDEGYVKLRGDHFTPIRYTAAATRFIVPWLKRYVDEDTRYSRFLCPLPAPDATLVSFELRCPV [DP040]	<	3
QSSNPYQRGPAPTERSIEASRGPFAVAQTTVSRLSATGFGGGTIYYPTDTSQGRFGGVAISPGFTALQSSIAWLGPRIASQGFIVFTIDTITTLDQPAQRGDQLLAALDYLVQRSPAAVRDRLDPTRLAVMGHSMGGGGTLEAAKKRPSLKAAIPLTGWNLDTIWNDLRVPTLVVGAQLDLIAPILTFSLPFYNTIPASTEKVYLELAGASHFAPNLPDTNIAKYSIAWLKRWVDNDTRYTQFLCPGPRFELAISNYMSSCPM [DP056]	=	4
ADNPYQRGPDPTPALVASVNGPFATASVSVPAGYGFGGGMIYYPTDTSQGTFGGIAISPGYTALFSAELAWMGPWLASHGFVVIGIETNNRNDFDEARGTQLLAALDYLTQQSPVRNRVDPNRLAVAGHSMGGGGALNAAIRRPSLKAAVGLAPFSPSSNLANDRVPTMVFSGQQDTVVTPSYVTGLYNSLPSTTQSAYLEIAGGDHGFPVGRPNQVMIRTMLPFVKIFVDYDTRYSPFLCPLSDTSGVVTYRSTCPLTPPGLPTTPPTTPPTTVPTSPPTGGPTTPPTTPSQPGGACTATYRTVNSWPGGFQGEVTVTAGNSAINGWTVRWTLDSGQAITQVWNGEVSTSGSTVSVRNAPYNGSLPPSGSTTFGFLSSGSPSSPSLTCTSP [DP059]	=	35

----------
procedure summary: purified protein yield per well (BCA); higher = higher soluble expression
Items are presented alongside their recorded purified protein yield per well.
property name: purified protein yield per well (µg)

residue codes	reported relation	readout number
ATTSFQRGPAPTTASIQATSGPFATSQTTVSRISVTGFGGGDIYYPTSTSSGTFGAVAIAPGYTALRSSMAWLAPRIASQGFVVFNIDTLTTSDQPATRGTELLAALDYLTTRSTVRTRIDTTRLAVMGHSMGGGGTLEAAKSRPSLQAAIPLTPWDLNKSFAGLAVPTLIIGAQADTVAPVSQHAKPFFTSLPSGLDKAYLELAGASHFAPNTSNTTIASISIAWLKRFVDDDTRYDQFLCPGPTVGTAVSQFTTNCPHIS [ESM156]	=	272
YQRGPDPTRSALTADGPFSVTTYTVSRYAVTGFGGGVIYYPTGTSLTFGGIAVSPGYTADASSLAWFGRRLASHGFVVLVINTNSRFDFPDSRASQLAAALDYLVSRSPSAVRARLDTSRLAVAGHSMGGGATLRISENRPSLKAAVPLTPWHTDKTFNTAVPQLIIGAENDTVAPVSDHAIPFYQNLPSTTPKVYLELNNASHF [TEP127]	<	25
ADNPHQRGPNPTQASITANRGTFATAETSVGGGNGFGAAKIYYPTDTSQGTFGAIAVVPGYTATWAAEGAWMGHWLASFGFVVIGIDTLNRNDFDVARGTQLLAALDYLTQRSSVRTRVDPNRLAVMGHSMGGGGTISAALRWPTLKAAIGLAPYSPSQTTSGLQVPTMLLAGQNDGTSTPASIISLYNNIPASTEKSYLELAGAGHGFPTSNNSVMTRKVIPWMKIFIDQDARYTQFLCPLQDWTGIRSYRSSCPLLPGATFSLAGSASGKCVDVPGRVQTNGTGLIIWTCNGAVNQQWTRTAAGELRIYDNAKCMDANASGPGTRVTINSCNGGNSQKWTVNANGTVTNAASGRCIDTGGTADNAPVVVNTCTGGTSQT [ESM163]	=	96.4
QSNPYERGPAPTESSIEATRGSFSVSDKNVSSFSASGFGGGTIYYPTDTSQGTFGGVAISPGFTAGESSIAWLGPRIASQGFVVITIDTNSRYDQPNSRADQLQAALDHIVADSTVGSRIDPNRLAVMGHSMGGGGSLKAAEDNADLQAAVPLQPWHTQKNWSDVEVPTLIIGAENDSVASVTTHSKPFYTSLPDDLDKAYLELDGASHFVSNTPDTTTAKYSISWLKRFVDDDTRYEQFLCPAPDDRTISEYRDTCPHSGGGGTTPTTTPTTLPPDDDCAWWQWWC [DP057]	=	34
QPTLESLGNPGPYQVAYYDQLPEVDEYGAATLYFPANRGTDFGGVAIAPGFIEQQENIEWWGRHLASYGFAVLVLDTNNPRDDPQVRSEALLAALDVIRGEGARSGSPIRGKILNDRMAVMGHSMGGGGTLLAANRASDQLKAIIPFTPWLPNADFSSVAVPTLVLAGEVDRIASVAEHAWPHFQTLPEGIPRMYVEIAGGNHFIANSTTDQERLNPNIDVHDLVGALGVAWLKYFVDGDEDYRDLIYGELPAEQRARLSRFEFVQ [TEP107]	=	57.2
CGLCKAQTCDTLTLDSIYDPGAYSFATLLESDGIRNGPDYAGATIYYPTNGIPPYPAIAICPGHSTFEYTIQAWGPFYASHGIVTITIGTNSIYDYPDARKNAILDALETVRQENVRSGSPLFGYLDLSRLAVSGWSMGGGGAQLAAAADTTIKAVVGLCPWLESWRTAADLNHPVPTLILSGQIDAIAPPYYHADVHYGYIP [TEP133]	<	25
AAPVHHAVTRPVAAHHPVTRPVAGHAPPPSTVDQIVVPATADARFGGGTIFAPHGAGQKVLGSVIVTPGFHGRKSDMAVYGTELAAEGFVVFTIDTRERADLPAQRATEMLAAADYLTGRSAVKGEVSPDRVALLGYSMGGGGTLEAAQERPSIKAALTLMPYDYPPAGDPKAVHPAYPELTVPTLIITGQKDATAIPAKFGKPAYDSIPAGTPKQYLQLTGLGHAAGMGKPTATIRAAITAFLERYLDGDTAYAKDICPAPEVGGPISASTSSCPAG [ESM183]	<	25
ADNPYQRGPDPTPASIAADHGPFATAQTTIPKGNGLGGGIVYYPTDTSQGTFGAIAIAPGYGTEWRWYGWLGPRLASFGFVVVGIETNSLSDYADARADQLLAALDWLVTSSPVRDRVDRTRLAVGGHSMGGGGALVAATRRPSLRSAVGMAPYVPDGILRGTSVPTILFGGQADTTVTPAYLASAYATIPATVPRAYPEIAGEGHGFAAGGGGGNSGAFARVMMVWLKVFVDADTRYPPFLCPTLSNTSGISKYQASCPLGPGGTIPPPDTSRLANANAGRCLDASGAGTANGTKVILWTCNHGANQQWNRT [ESM139]	=	305
TDNPHQRGPNPSQASISANRGTFATAETSVGSGNGFGAAKIYYPTDTGQGTFGAIAVSPGYTATWAAEGAWMGHWLASFGFVVIGIDTINRNDFDVARGTQLLAALDYLTQRSSVRTRVDPSRLAVMGHSMGGGGTISAALRRPTLKAAIGLAPYSPSQTTTGMQVPTVLLAGQNDGTSTPASIITLHNNIPASTEKAYLELTGAGHGFPTSNNSVVTRKVIPWMKIFIDQDTRYTQFLCPLQDWTGIRSYRNSCPLLPNDPGTTFSLAGSASGKCVDVPGRVQTNGTGLIIWTCNGAANQHWTRTAAGELRIYGNSKCMDASGQGARVTINSCNGGSGQKWTVGTNGTVTNAASAGCLDTGGTADNAPVIVTTCNGGSGQIWIKRS [ESM184]	=	34
ATVTPIRMETRIRTSSFTRFTSTPTACAFDSPIAKAFSSVRSRIDASRLAVAGHSMGGGGTLEAAKDRPGLRAAVPLAPWNTTKNWSGNRVPTLIIGGQSDTIAAVSSHAVPFYTSLPTTPDKAYLELAGASHFFPQSANADVAMMFVSWLKRFVDGDTRYEQFLCPGPSVSGSVSRYSSTCPLASGPTPTSTTTATTGTSTTRTTTTSSGGSGGGACSASYATSNAWQGGFVGTVTVRADLALSGWQVTLALPAGTTITGSWNGVRSGSTGTVQVRNETYNGILASGQTTSFGFQGSGSPSGLTVTSCTAN [ESM108]	<	25
